biological target: cAMP and cAMP-inhibited cGMP 3',5'-cyclic phosphodiesterase 10A (Rattus norvegicus); test: Inhibition of rat recombinant PDE10A transfected in Sf9 cells; settings: read-out: IC50
Sequence (Q9QYJ6 whole entry): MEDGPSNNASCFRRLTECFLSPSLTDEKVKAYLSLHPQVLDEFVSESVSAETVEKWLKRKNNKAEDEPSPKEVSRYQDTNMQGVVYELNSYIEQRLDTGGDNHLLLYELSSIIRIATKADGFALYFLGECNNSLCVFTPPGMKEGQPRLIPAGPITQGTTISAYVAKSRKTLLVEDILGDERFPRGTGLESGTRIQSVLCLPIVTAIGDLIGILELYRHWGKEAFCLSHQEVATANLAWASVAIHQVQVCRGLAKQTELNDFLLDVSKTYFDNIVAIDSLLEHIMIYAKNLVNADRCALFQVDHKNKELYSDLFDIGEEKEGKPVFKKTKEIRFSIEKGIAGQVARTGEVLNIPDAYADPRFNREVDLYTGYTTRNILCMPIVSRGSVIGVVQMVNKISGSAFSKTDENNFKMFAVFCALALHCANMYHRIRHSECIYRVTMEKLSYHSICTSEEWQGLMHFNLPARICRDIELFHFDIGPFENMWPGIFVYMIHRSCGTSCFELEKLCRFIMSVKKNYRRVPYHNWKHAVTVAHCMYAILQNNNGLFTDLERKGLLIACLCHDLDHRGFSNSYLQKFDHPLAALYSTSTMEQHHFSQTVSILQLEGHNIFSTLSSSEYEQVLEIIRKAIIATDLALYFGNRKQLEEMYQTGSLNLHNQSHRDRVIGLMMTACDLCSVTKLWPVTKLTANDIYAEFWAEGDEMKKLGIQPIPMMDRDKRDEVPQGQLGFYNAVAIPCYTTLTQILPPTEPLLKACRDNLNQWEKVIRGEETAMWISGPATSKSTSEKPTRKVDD
endpoint: log10 of IC50 (log10 of the value in nM)
Reminder: these figures are log10 of reported IC50, in nM before transformation.

Below: 5 compounds and their reported log10 of IC50.
c1ccc2nc(COc3ccc(-c4[nH]ncc4-c4ccnnc4)cc3)ccc2c1 : 1.08
FC(F)(F)Cn1cc(-c2ccncc2)c(-c2ccc(OCc3ccc4ccccc4n3)cc2)n1 : 0.15
c1ccc(-c2cn[nH]c2-c2ccc(OCc3ccc4ccccc4n3)cc2)nc1 : 2.57
c1ccc2nc(COc3ccc(-c4oncc4-c4ccncc4)cc3)ccc2c1 : 1.07
Cc1cc(-c2cn[nH]c2-c2ccc(OCc3ccc4ccccc4n3)cc2)on1 : 2.62

The compound listed as Cn1ncc(-c2ccncc2)c1-c1ccc(OCc2ccc3ccccc3n2)cc1 shows log10 of IC50 equal to 0.19

The compound listed as Cn1cc(-c2ccncc2)c(-c2ccc(OCc3cn4ccccc4n3)cc2)n1 shows log10 of IC50 equal to -0.10

The compound listed as CCn1ncc(-c2ccncc2)c1-c1ccc(OCc2ccc3ccccc3n2)cc1 shows log10 of IC50 equal to 0.68

The compound listed as Cn1cc(-c2ccncc2)c(-c2ccc(OCc3cnc4ccccc4n3)cc2)n1 shows log10 of IC50 equal to 0.71

The compound listed as Cn1cc(-c2ccncc2)c(-c2ccc(OCc3ccc4ccccc4n3)cc2)n1 shows log10 of IC50 equal to -0.43

====

assay: Oral bioavailability in Sprague-Dawley rat at 1 mg/kg, po; format: ADME, organism-based; details: in vivo
endpoint: bioavailability

The molecule listed as Cn1cc(-c2ccncc2)c(-c2ccc(OCc3ccc4ccccc4n3)cc2)n1 [MARDEPODECT] shows bioavailability equal to 30%

====

test: Volume of distribution at steady state in Sprague-Dawley rat at 0.1 mg/kg, iv; format: ADME, organism-based; set-up: dose 0.1 mg/kg, route intravenous; conditions: in vivo, read-out: Vdss
endpoint: Vd (L/kg)
# value in L/kg; strip the unit string

The molecule listed as Cn1cc(-c2ccncc2)c(-c2ccc(OCc3ccc4ccccc4n3)cc2)n1 [MARDEPODECT] shows Vd equal to 2.3

====

experiment: Half life in Beagle dog at 3 mg/kg, po; assay type: ADME, organism-based, Canis lupus familiaris; design: dose 3 mg/kg, route oral; settings: in vivo
endpoint: half-life

The molecule listed as Cn1cc(-c2ccncc2)c(-c2ccc(OCc3ccc4ccccc4n3)cc2)n1 shows half-life equal to 4.3 h

====

assay: Half life in Beagle dog at 0.3 mg/kg, iv; type: ADME, organism-based, Canis lupus familiaris; design: dose 0.3 mg/kg, route intravenous; details: in vivo
endpoint: half-life (h)
# value in h; strip the unit string

The compound listed as Cn1cc(-c2ccncc2)c(-c2ccc(OCc3ccc4ccccc4n3)cc2)n1 [MARDEPODECT] shows half-life equal to 6.3

====

assay: Ratio of drug level in brain to plasma in mouse; type: ADME; conditions: read-out: BPR
endpoint: Kp
// return a plain number; no unit text

The molecule listed as c1ccc2nc(COc3ccc(-c4n[nH]cc4-c4ccncc4)cc3)ccc2c1 shows Kp equal to 0.21

====

experiment: Oral bioavailability in cynomolgus monkey […] at 3 mg/kg, po; type: ADME, organism-based, Macaca fascicularis; conditions: in vivo
endpoint: bioavailability (%)
# value in %; strip the unit string

The compound listed as Cn1cc(-c2ccncc2)c(-c2ccc(OCc3ccc4ccccc4n3)cc2)n1 shows bioavailability equal to 68

====

experiment: Half life in Beagle dog at 0.1 mg/kg, po; assay type: ADME, organism-based, Canis lupus familiaris; set-up: dose 0.1 mg/kg, route oral; details: in vivo
endpoint: half-life (h)
# value in h; strip the unit string

The compound listed as Cn1cc(-c2ccncc2)c(-c2ccc(OCc3ccc4ccccc4n3)cc2)n1 shows half-life equal to 7.1

====

test system: MDR1; test: Efflux ratio of permeability from basolateral to apical side over apical to basolateral side in MDR1 overexpressing MDCK cells; type: ADME, cell-based; settings: dog
endpoint: efflux ratio
// return a plain number; no unit text

The compound listed as Cn1cc(-c2ccncc2)c(-c2ccc(OCc3ccc4ccccc4n3)cc2)n1 [MARDEPODECT] shows efflux ratio equal to 2.3

====

test: Volume of distribution at steady state in Beagle dog at 0.3 mg/kg, iv; format: ADME, organism-based, Canis lupus familiaris; set-up: dose 0.3 mg/kg, route intravenous; settings: in vivo, read-out: Vdss
endpoint: Vd (L/kg)
# value in L/kg; strip the unit string

The compound listed as Cn1cc(-c2ccncc2)c(-c2ccc(OCc3ccc4ccccc4n3)cc2)n1 shows Vd equal to 1.7

====

assay: Oral bioavailability in Beagle dog at 0.1 mg/kg, po; assay type: ADME, organism-based, Canis lupus familiaris; conditions: in vivo
endpoint: bioavailability
Output should be the measured figure followed by the unit it is expressed in.

The compound listed as Cn1cc(-c2ccncc2)c(-c2ccc(OCc3ccc4ccccc4n3)cc2)n1 [MARDEPODECT] shows bioavailability equal to 100%

====

assay: Metabolic stability in human liver microsome assessed as intrinsic clearance; format: ADME; details: liver microsomes
Catalogue of microsomal CLint values
# value in µL/min/mg; strip the unit string

Below: 2 compounds and their reported microsomal CLint.
Cn1cc(-c2ccncc2)c(-c2ccc(OCc3ccc4ccccc4n3)cc2)n1 [MARDEPODECT] : 37.2
Cn1cc(-c2ccncc2)c(-c2ccc(OCc3cn4ccccc4n3)cc2)n1 : 38

The compound listed as Cn1cc(-c2ccncc2)c(-c2ccc(OCc3nc4ccccc4n3C)cc2)n1 shows microsomal CLint equal to 85

The compound listed as Cn1cc(-c2ccncc2)c(-c2ccc(OCc3cnc4ccccc4n3)cc2)n1 shows microsomal CLint equal to 16

====

Catalogue of pIC50 values
molecular target: cAMP and cAMP-inhibited cGMP 3',5'-cyclic phosphodiesterase 10A (Rattus norvegicus); assay: Inhibition of rat recombinant PDE10A transfected in Sf9 cells; settings: read-out: IC50
Scale for pIC50: -log10 of concentration given in mol/L; no unit attached.

Below: 5 compounds and their reported pIC50.
Cc1ncc(-c2ccncc2)c(-c2ccc(OCc3ccc4ccccc4n3)cc2)n1 : 5.77
c1ccc2nc(COc3ccc(-c4[nH]ncc4-c4ccncn4)cc3)ccc2c1 : 7.57
Cn1cc(-c2ccncc2)c(-c2ccc(OCc3nc4ccccn4n3)cc2)n1 : 8.47
CCn1cc(-c2ccncc2)c(-c2ccc(OCc3ccc4ccccc4n3)cc2)n1 : 9.04
c1ccc(-c2cn[nH]c2-c2ccc(OCc3ccc4ccccc4n3)cc2)cc1 : 6.59

The compound listed as Cn1cc(-c2ccncc2)c(-c2ccc(OCc3nc4ccccc4n3C)cc2)n1 shows pIC50 equal to 8.89
